- EXPERIMENTAL_SYSTEM: RPS6KA3 KD1 KD2 (human) (UniProt P51812)
- Sequence (P51812 whole entry, looked up): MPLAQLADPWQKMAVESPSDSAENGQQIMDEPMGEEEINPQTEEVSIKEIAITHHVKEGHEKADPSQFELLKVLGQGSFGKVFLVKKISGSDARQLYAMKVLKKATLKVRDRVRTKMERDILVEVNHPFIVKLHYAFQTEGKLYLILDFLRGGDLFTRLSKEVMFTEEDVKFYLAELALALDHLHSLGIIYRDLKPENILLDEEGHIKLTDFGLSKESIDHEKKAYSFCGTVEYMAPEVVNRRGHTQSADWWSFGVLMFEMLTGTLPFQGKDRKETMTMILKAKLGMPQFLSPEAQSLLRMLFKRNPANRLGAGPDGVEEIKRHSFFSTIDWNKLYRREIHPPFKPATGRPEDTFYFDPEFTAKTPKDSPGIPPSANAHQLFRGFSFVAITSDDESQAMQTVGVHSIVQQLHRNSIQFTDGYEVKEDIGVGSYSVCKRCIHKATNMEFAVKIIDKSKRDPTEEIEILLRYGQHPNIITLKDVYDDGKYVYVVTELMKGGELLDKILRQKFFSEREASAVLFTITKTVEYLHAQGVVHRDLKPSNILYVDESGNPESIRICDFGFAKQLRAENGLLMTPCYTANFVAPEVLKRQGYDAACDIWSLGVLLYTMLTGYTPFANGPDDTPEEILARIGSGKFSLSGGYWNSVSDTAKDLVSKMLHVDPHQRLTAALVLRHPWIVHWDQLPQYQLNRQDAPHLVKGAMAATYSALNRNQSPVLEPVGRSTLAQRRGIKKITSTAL
- PROCEDURE_DETAILS: radiometric filter-binding kinase assay, Kinase HotSpot
- CONDITIONS: compound 0.5 µM; ATP 10 µM
QUANTITY_NAME: residual activity (%)
Give the value, in units of %, as a plain number.

Exercise: Data request, read-out residual activity, for CC(=O)O/N=C1\C(=C2\C(=O)Nc3cc(Br)ccc32)Nc2ccccc21
Solution: 91.9

Exercise: Data request, read-out residual activity, for CC(C)c1nn(-c2c(Cl)cccc2Cl)c2nc(Cc3ccc(OCCO)cc3)nc(O)c12
Solution: 88.4

Exercise: Data request, read-out residual activity, for Cn1nc2c3c(cccc31)C(=O)c1ccccc1-2
Solution: 97.3

Exercise: Data request, read-out residual activity, for O=C(CCCc1ccc(-c2ccccc2F)cc1)Nc1ccc(O)cc1
Solution: 95.8

Exercise: Data request, read-out residual activity, for CC(C)[C@H](CO)Nc1nc(Nc2cc(N)cc(Cl)c2)c2ncn(C(C)C)c2n1
Solution: 54.1

Exercise: Data request, read-out residual activity, for O=C1Nc2ccccc2/C1=C1\Nc2ccccc2\C1=N/O
Solution: 61.4

Exercise: Data request, read-out residual activity, for COc1cc2ncc(-c3ccccc3)nc2cc1OC
Solution: 101

Exercise: Data request, read-out residual activity, for COc1cc2ncnc(N3CCN(C(=O)Nc4ccc(Oc5ccccc5)cc4)CC3)c2cc1OC
Solution: 115

Exercise: Data request, read-out residual activity, for CN(C)C[C@H]1CCn2c(c(C3=C(c4cn(C)c5ccccc45)C(=O)NC3=O)c3ccccc32)C1
Solution: 1.81

Exercise: Data request, read-out residual activity, for Nc1nnc2[nH]c3ccccc3nc1-2
Solution: 88

Exercise: Data request, read-out residual activity, for O=C1NC(=O)C(c2c[nH]c3ccccc23)=C1c1c[nH]c2ccccc12
Solution: 46.7

Exercise: Data request, read-out residual activity, for COc1ccc(OC)c2c(=S)c3ccccc3[nH]c12
Solution: 109

Exercise: Data request, read-out residual activity, for CN([C@@H](Cc1ccc(OS(=O)(=O)c2cccc3cnccc23)cc1)C(=O)N1CCN(c2ccccc2)CC1)S(=O)(=O)c1cccc2cnccc12
Solution: 98.6

Exercise: Data request, read-out residual activity, for O=C(O)/C=C/c1cc(Br)c(Br)c(Br)c1Br
Solution: 41.2

Exercise: Data request, read-out residual activity, for Cc1nc2cc3nc(-c4cccs4)cnc3cc2n1C
Solution: 96.3

Exercise: Data request, read-out residual activity, for CCN(CC)CCCCN1c2ccccc2Oc2ccc(Cl)cc21
Solution: 98.6

Exercise: Data request, read-out residual activity, for Cn1cnc2cc3c(Nc4cccc(Br)c4)ncnc3cc21
Solution: 105

Exercise: Data request, read-out residual activity, for Oc1ccc(Nc2nc(-c3ccc(Cl)cc3)cs2)cc1
Solution: 107

Exercise: Data request, read-out residual activity, for O=C1Nc2ccccc2/C1=C1/Nc2ccccc2/C1=N\OCCC(O)CO (stereo not given)
Solution: 18.3

Exercise: Data request, read-out residual activity, for O=C1NC(=O)/C(=C\c2ccc3nccnc3c2)S1
Solution: 101

Exercise: Data request, read-out residual activity, for Cn1sc(=O)n(Cc2ccccc2)c1=O
Solution: 97.5

Exercise: Data request, read-out residual activity, for Nc1nccc(-c2c(-c3ccc(F)cc3)ncn2C2CCNCC2)n1
Solution: 92.2

Exercise: Data request, read-out residual activity, for CCn1cnc2c(Nc3cccc(Cl)c3)nc(N[C@@H]3CCCC[C@@H]3N)nc21
Solution: 64.1

Exercise: Data request, read-out residual activity, for O=C(Nc1cccc(Nc2cc(Nc3cccc(C(F)(F)F)c3)ncn2)c1)C1CC1
Solution: 105

Exercise: Data request, read-out residual activity, for O=C1NC(=O)C(c2cn(CCCO)c3ncccc23)=C1c1cnccn1
Solution: 91.3
